# assayed_target: human GABA A receptor α5β3γ2 (Homo sapiens, UniProt P18507+P31644)
# test_protocol: [3H]flumazenil competition binding assay, human GABA A α5 receptor
# experimental_context: human α5β3γ2 receptors transiently transfected in HEK293 cells; displacement of [3H]flumazenil 0.5 nM; 1 hour at 4° C.; means of two determinations; read-out: hKi GABA A α5
metric: Ki (nM)

> print(dat)
                                   compound  number
1  CCCCc1noc(C)c1COc1cc(C(=O)NC(C)C)on1 [Example 28]    24.6

1 = Cc1onc(-c2ccc(F)cn2)c1COc1cc(C(=O)NCCO)sn1 [Example 39]
2 = Cc1onc(-c2ccccc2)c1COc1cc(C(=O)NC(C)C)sn1 [Example 34]
3 = Cc1onc(-c2ccc(F)cn2)c1COc1cc(C(=O)NC(C)C)on1 [Example 22]
Put the items in sequence by Ki, from largest down. Give the labels in the order requested. 2, 1, 3
(2: 28 nM, 1: 13 nM, 3: 1.7 nM)

1 = Cc1onc(-c2ccccn2)c1COc1cc(C(=O)NC(C)C)sn1 [Example 36]
2 = CCCCc1noc(C)c1COc1cc(C(=O)N[C@H](C)CO)on1 [Example 27]
Hello, I am sorting some records. Could you say if 1 or 2 has the smaller Ki value? Kindly state the label of the option you pick. 1

P = Cc1onc(-c2ccccn2)c1COc1cc(C(=O)NCCO)sn1 [Example 37]
Q = Cc1onc(-c2ccccn2)c1COc1cc(C(=O)NCC(F)(F)F)on1 [Example 17]
R = Cc1onc(-c2ccccc2)c1COc1cc(C(=O)NC(C)CO)on1 (stereo not drawn) [Example 6]
List by increasing Ki. In plain terms: list the labels in the order you were asked to. Q, R, P
